target-desc: Kappa-type opioid receptor (Mus musculus) (UniProt P33534)
Sequence (P33534 whole entry): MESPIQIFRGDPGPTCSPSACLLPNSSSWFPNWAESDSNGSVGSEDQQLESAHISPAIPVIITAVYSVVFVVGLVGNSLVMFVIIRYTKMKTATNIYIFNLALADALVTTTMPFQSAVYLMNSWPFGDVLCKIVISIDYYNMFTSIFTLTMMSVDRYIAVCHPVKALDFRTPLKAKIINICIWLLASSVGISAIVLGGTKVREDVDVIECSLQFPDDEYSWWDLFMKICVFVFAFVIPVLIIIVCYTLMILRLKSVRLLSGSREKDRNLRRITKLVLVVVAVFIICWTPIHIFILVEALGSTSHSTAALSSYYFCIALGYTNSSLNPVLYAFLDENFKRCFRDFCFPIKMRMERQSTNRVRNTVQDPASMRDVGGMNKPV
assay: Antagonist activity towards U50 488 induced kappa opioid receptor by mouse writhing assay at 2.5 mg/kg subcutaneously
Type: functional, organism-based
Parameters: dose 2.5 mg/kg
measurement-kind: AD50 (mg/kg)
Write it as a number; the unit mg/kg goes unstated.

Any idea what its AD50 is? The molecule is `C[C@@H]1CN(CC[C@@H](O)C2CCCCC2)CC[C@]1(C)c1cccc(O)c1` 0.52

// AD50 lookup, key: `C[C@H]1CN(CCCC2CCCC2)CC[C@@]1(C)c1cccc(O)c1` 0.13

Reported AD50 for C[C@H]1CN(CCC2C=CCC2)CC[C@@]1(C)c1cccc(O)c1 (stereo not given in full) : what is it? 0.12

What value of AD50 has been reported for the following molecule? `C[C@H]1CN(CCCC2CCCCC2)CC[C@@]1(C)c1cccc(O)c1` 0.19

Please report the recorded AD50 for CC(C)CCCCN1CC[C@@](C)(c2cccc(O)c2)[C@@H](C)C1 (stereo in doubt; 39) . 0.22

Need AD50, item `CC(C)CCCN1CC[C@@](C)(c2cccc(O)c2)[C@@H](C)C1` 0.073

# lookup: AD50 of `CCCCCN1CC[C@@](C)(c2cccc(O)c2)[C@@H](C)C1` 0.6

Please report the recorded AD50 for C[C@H]1CN(CCC(O)C2CCCCC2)CC[C@@]1(C)c1cccc(O)c1 (stereo not given in full) . 0.14
